EXPERIMENT_SUMMARY: Cytotoxicity against human SKOV3 cells assessed as reduction in cell viability after 48 hrs by MTT assay
Format: functional, cell-based
REPORTED_CONDITIONS: SK-OV-3, 48 h
MEASURE_NAME: IC50 (µM)
Answer format: numeric, µM implied, no suffix.

QUERY: What does the data say about its IC50? Entry: C[C@@H]1O[C@@H](O[C@H]2[C@H](O[C@H]3CC[C@]4(C)[C@H]5CC=C6[C@@H]7CC(C)(C)CC[C@]7(C(=O)O)CC[C@@]6(C)[C@]5(C)CC[C@H]4C3(C)C)OC[C@H](O[C@@H]3O[C@H](CO)[C@@H](O)[C@H](O)[C@H]3O)[C@@H]2O)[C@H](O)[C@H](O)[C@H]1O [HEDERACOLCHISIDE A1]
RESULT: 3.3

QUERY: Which IC50 reading was recorded for the compound C[C@@H]1O[C@@H](O[C@H]2[C@H](O[C@H]3CC[C@]4(C)[C@H]5CC=C6[C@@H]7CC(C)(C)CC[C@]7(C(=O)OCCCC(=O)O)CC[C@@]6(C)[C@]5(C)CC[C@H]4C3(C)C)OC[C@H](O[C@@H]3O[C@H](CO)[C@@H](O)[C@H](O)[C@H]3O)[C@@H]2O)[C@H](O)[C@H](O)[C@H]1O ?
RESULT: 9.6

====

EXPERIMENT_SUMMARY: Cytotoxicity against human SKOV3 cells assessed as reduction in cell viability after 48 hrs by MTT assay
Assay type: functional, cell-based
REPORTED_CONDITIONS: SK-OV-3, 48 h
MEASURE_NAME: IC50 (µM)
Answer in µM, number only, no unit symbol.

QUERY: Fill in the blank: the reported IC50 of C[C@@H]1O[C@@H](O[C@H]2[C@H](O[C@H]3CC[C@]4(C)[C@H]5CC=C6[C@@H]7CC(C)(C)CC[C@]7(C(=O)OCCO)CC[C@@]6(C)[C@]5(C)CC[C@H]4C3(C)C)OC[C@H](O[C@@H]3O[C@H](CO)[C@@H](O)[C@H](O)[C@H]3O)[C@@H]2O)[C@H](O)[C@H](O)[C@H]1O is ____.
RESULT: 19.7

QUERY: Consider the compound shown here: C[C@@H]1O[C@@H](O[C@H]2[C@H](O[C@H]3CC[C@]4(C)[C@H]5CC=C6[C@@H]7CC(C)(C)CC[C@]7(C(=O)OCC(=O)O)CC[C@@]6(C)[C@]5(C)CC[C@H]4C3(C)C)OC[C@H](O[C@@H]3O[C@H](CO)[C@@H](O)[C@H](O)[C@H]3O)[C@@H]2O)[C@H](O)[C@H](O)[C@H]1O What is its recorded IC50?
RESULT: 2.7

QUERY: Requested field: IC50. Item: COC(=O)[C@]12CCC(C)(C)C[C@H]1C1=CC[C@@H]3[C@@]4(C)CC[C@H](O[C@@H]5OC[C@H](O[C@@H]6O[C@H](CO)[C@@H](O)[C@H](O)[C@H]6O)[C@H](O)[C@H]5O[C@@H]5O[C@@H](C)[C@H](O)[C@@H](O)[C@H]5O)C(C)(C)[C@@H]4CC[C@@]3(C)[C@]1(C)CC2
RESULT: 3.1

QUERY: I am curious: what IC50 value has been reported for CCCOC(=O)[C@]12CCC(C)(C)C[C@H]1C1=CC[C@@H]3[C@@]4(C)CC[C@H](O[C@@H]5OC[C@H](O[C@@H]6O[C@H](CO)[C@@H](O)[C@H](O)[C@H]6O)[C@H](O)[C@H]5O[C@@H]5O[C@@H](C)[C@H](O)[C@@H](O)[C@H]5O)C(C)(C)[C@@H]4CC[C@@]3(C)[C@]1(C)CC2 ?
RESULT: 12.3

QUERY: What does the data say about its IC50? Entry: C[C@@H]1O[C@@H](O[C@H]2[C@H](O[C@H]3CC[C@]4(C)[C@H]5CC=C6[C@@H]7CC(C)(C)CC[C@]7(C(=O)OCCC(=O)O)CC[C@@]6(C)[C@]5(C)CC[C@H]4C3(C)C)OC[C@H](O[C@@H]3O[C@H](CO)[C@@H](O)[C@H](O)[C@H]3O)[C@@H]2O)[C@H](O)[C@H](O)[C@H]1O
RESULT: 5.4

QUERY: Look up IC50 for this compound: CCOC(=O)[C@]12CCC(C)(C)C[C@H]1C1=CC[C@@H]3[C@@]4(C)CC[C@H](O[C@@H]5OC[C@H](O[C@@H]6O[C@H](CO)[C@@H](O)[C@H](O)[C@H]6O)[C@H](O)[C@H]5O[C@@H]5O[C@@H](C)[C@H](O)[C@@H](O)[C@H]5O)C(C)(C)[C@@H]4CC[C@@]3(C)[C@]1(C)CC2
RESULT: 5.8

====

EXPERIMENT_SUMMARY: Toxicity in mouse assessed as tolerance dose administered as submicron emulsions through caudal vein injection dosed daily for 7 days
Type: organism-based
REPORTED_CONDITIONS: in vivo, iv, read-out: Activity
MEASURE_NAME: MTD at 168 h

QUERY: Consider the compound C[C@@H]1O[C@@H](O[C@H]2[C@H](O[C@H]3CC[C@]4(C)[C@H]5CC=C6[C@@H]7CC(C)(C)CC[C@]7(C(=O)O)CC[C@@]6(C)[C@]5(C)CC[C@H]4C3(C)C)OC[C@H](O[C@@H]3O[C@H](CO)[C@@H](O)[C@H](O)[C@H]3O)[C@@H]2O)[C@H](O)[C@H](O)[C@H]1O [HEDERACOLCHISIDE A1] and give its measured MTD at 168 h.
RESULT: < 8 mg/kg
